# tested-on: HMG-CoA synthase (Rattus norvegicus, UniProt P17425)
# Construct: The livers from male Charles River CD rats (225-350 g) were homogenized; from tissue; host or cells: rat liver (male Charles River CD rats), 100,000×g supernatant, ammonium sulfate precipitate, DEAE-52 fraction
# Sequence (P17425 1-520): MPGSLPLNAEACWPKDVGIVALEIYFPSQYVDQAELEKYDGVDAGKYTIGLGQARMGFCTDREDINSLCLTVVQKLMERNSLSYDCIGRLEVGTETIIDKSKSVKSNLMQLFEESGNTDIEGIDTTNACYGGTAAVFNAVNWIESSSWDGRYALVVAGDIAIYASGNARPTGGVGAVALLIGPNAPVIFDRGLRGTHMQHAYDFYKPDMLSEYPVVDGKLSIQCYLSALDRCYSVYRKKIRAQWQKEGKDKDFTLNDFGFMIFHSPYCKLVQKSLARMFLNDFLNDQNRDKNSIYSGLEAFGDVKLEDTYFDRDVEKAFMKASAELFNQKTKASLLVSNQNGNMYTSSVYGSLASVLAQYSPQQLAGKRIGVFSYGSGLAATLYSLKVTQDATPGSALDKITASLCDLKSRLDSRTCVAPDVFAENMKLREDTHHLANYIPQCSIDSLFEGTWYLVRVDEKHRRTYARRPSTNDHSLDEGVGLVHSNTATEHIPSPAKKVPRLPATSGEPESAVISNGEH
# assay: HMG-CoA synthase inhibition assay
# Type: biochemical
# condition-label: Table VI; n is 4
reported-metric: pIC50
The meaning of pIC50 here: minus log10 of the concentration in molar units.

For the compound COCC1C(=O)N(S(=O)(=O)c2ccc(C)cc2)C1CCCCC(C)CC(C)=CC(C)=CC(=O)OC (stereo not shown) [Table VI i)] , give its reported pIC50.
5.44
